src = patent US20250051443A1

Molecular target: T1, human CD3 (human, UniProt P07766 23-207; P09693 23-182; P04234 22-171)
T1 construct: whole, on cells; also called CD3 on Jurkat T cells; CD3 on primary human T cells
Test: flow cytometry, hybridoma supernatant on CD3+ Jurkat cells
Let's look at some binders and their measured MFI.
Number in MFI, nothing else.

Observe how each entry below is paired with its result.
[
  {
    "binder": "F332-6D7 (antibody, mouse IgG2a, V domains shown, also called F332-6D7-2; F332-6D7 (7G4)) VH: QVQLQQPGAELGKPGTSVNLSCKASGYTFTSYWMHWVKQRPGQGLDWIGNINPNSGTTNYNEKFKSKATLTVDKSSSTAYMQLSTLTSEDSAVYYCTRDISGQYYFDYWGQGTSLTVSS VL: DIVMSQSPSSLAVSAGEKVTMSCKSSQSLLNSRTRKNYLAWYQQKPGQSPKLLIYWASTRESGVPDRFTGSGSGTDFTLTISSVQAEDLAVYYCKQSYSLRTFGGGSKLEIK",
    "unit-string": "MFI",
    "MFI": 247
  },
  {
    "binder": "F332-12F6 (antibody, mouse IgG2a, V domains shown, also called F332-12F6-2) VH: QVQLQQPGAELGKPGTSVKLSCKASGYTFTSYWIHWVKQRPGQGLEWIGNINPNSGSTNYNEKFKSKATLTVDKSSSTAYMQLSTLTSEDSAVYYCTRDISGQYYFDYWGQGTTLTVSS VL: DIVMSQSPSSLAVSAGEKVTMSCKSSQSLLNSRTRKSYLAWYQQKPGQSPKLLIYWASTRESGVPDRFTGSGSGTDFTLTISSVQAEDLAVYYCIQSYNLRTFGGGTKLEIK",
    "unit-string": "MFI",
    "MFI": 369
  }
]

For the next question, use this binder.
Exam item: So what's the measured MFI for this one? F332-5F2 (antibody, mouse IgG2b, V domains shown, also called F332-5F2-2; F332-5F2 (6G8, 13A3)) VH: QVQLQQPGAELGKPGTSVKLSCKASGYTFTSYWMHWVKQRPGQGLEWIGNINPNGGDSNYNEKFKSKATLTVDKSSSTAYMQLSTLTSEDSAVYYCTRDISGQYYFDFWGQGTSLTVFS VL: DILMSQSPSSLAVSAGEQVTMSCKSSQSLLNSRTRKNYLAWYQQKPGQSPKLLIFWASTRKSGVPDRFTGSGSGTYFTLTISSVQAEDLAVYYCTQSYNLRTFGGGTKLEIK
Marked response: 292
